I'd be grateful if you could share measured drug sensitivity score for these entries.
System: KURAMOCHI
Assay: drug sensitivity score (DSS2) on cancer cell count; higher = more sensitive; extreme values may be limits of the assay
Conditions: co-cultured fibroblast: WI38; 72 h
One number for each entry, in DSS.

Check out these entries, answers already filled in.
Prompt: Form entry - test system: KURAMOCHI; read-out: drug sensitivity score; compound: Cc1cc2c(C(=O)NC[C@H](C)c3ccccc3)c(O)c(O)cc2c(O)c1-c1c(C)cc2c(C(=O)NC[C@H](C)c3ccccc3)c(O)c(O)cc2c1O [Sabutoclax]
Response: 4.3

Prompt: Form entry - test system: KURAMOCHI; read-out: drug sensitivity score; compound: CC1=C(/C=C/C(C)=C/C=C/C(C)=C/C(=O)O)C(C)(C)CCC1 [Tretinoin]
Response: 0

Prompt: Form entry - test system: KURAMOCHI; read-out: drug sensitivity score; compound: CC(C)NC(=O)COc1cccc(-c2nc(Nc3ccc4[nH]ncc4c3)c3ccccc3n2)c1 [KD025]
Response: 1.3

Prompt: Form entry - test system: KURAMOCHI; read-out: drug sensitivity score; compound: O=C(/C=C/c1cccc(S(=O)(=O)Nc2ccccc2)c1)NO [Belinostat]
Response: 18.6

Prompt: Form entry - test system: KURAMOCHI; read-out: drug sensitivity score; compound: CCn1c(=O)c(-c2ccc(Cl)cc2Cl)cc2cnc(Nc3ccc(N4CCNCC4)c(F)c3)nc21 [FRAX486]
Response: 4.9

For each of the compounds below, state drug sensitivity score.
1. Nc1ncnc2c1nc(N)n2[C@@H]1O[C@H](CO)[C@@H](O)[C@H]1O [8-amino-adenosine]
2. Clc1ccc(C(c2ccccc2Cl)C(Cl)Cl)cc1 (stereo not drawn) [Mitotane]
3. Cc1nc(-c2cn3c(n2)-c2ccc(-c4cnn(C(C)(C)C(N)=O)c4)cc2OCC3)n(C(C)C)n1 [Taselisib]
4. CC(C)N(CCCNC(=O)Nc1ccc(C(C)(C)C)cc1)C[C@H]1O[C@@H](n2cc(Br)c3c(N)ncnc32)[C@H](O)[C@@H]1O [SGC0946]
5. CCNc1nc(Nc2cc(F)c(C(=O)N3CCOCC3)cc2OC)ncc1C(F)(F)F [GNE-7915]
6. COc1ccc(Cn2ccc3ccc(C(=O)NO)cc32)cc1
7. O=c1sn(-c2cccc3ccccc23)c(=O)n1Cc1ccccc1 [Tideglusib]
8. CC1(COc2ccc3c(c2)ncn3-c2ccc3cccc(N4CCC(N)CC4)c3n2)COC1 [Crenolanib]

Response:
[20.3, 0, 4.7, 3.3, 0, 2.3, 0, 10.5]

###

System: KURAMOCHI
Test: drug sensitivity score (DSS2) on cancer cell count; higher = more sensitive; extreme values may be limits of the assay
Settings: co-cultured fibroblast: WI38; 72 h
I'd be grateful if you could share measured drug sensitivity score for these entries.
Numbers only, in DSS.

Check out these entries, answers already filled in.
Prompt: Form entry - test system: KURAMOCHI; read-out: drug sensitivity score; compound: "COCCNCc1ccc(-c2cc3nccc(Oc4ccc(NC(=S)NC(=O)Cc5ccc(F)cc5)cc4F)c3s2)nc1"
Response: 1.6

Prompt: Form entry - test system: KURAMOCHI; read-out: drug sensitivity score; compound: "FC(F)(F)c1ccc(CNc2ccc(Cc3c[nH]c4ncc(Cl)cc34)cn2)cn1"
Response: 1.4

Prompt: Form entry - test system: KURAMOCHI; read-out: drug sensitivity score; compound: "Cn1cc(-c2cnn3c(N)c(Br)c([C@@H]4CCCNC4)nc23)cn1"
Response: 0

Prompt: Form entry - test system: KURAMOCHI; read-out: drug sensitivity score; compound: "O=c1[nH]c(=O)n([C@H]2C[C@H](O)[C@@H](CO)O2)cc1F"
Response: 19

For each of the compounds below, state drug sensitivity score.
1. O=C1c2c(O)ccc(O)c2C(=O)c2c(NCCNCCO)ccc(NCCNCCO)c21
2. Cn1c(Nc2ccc(C(F)(F)F)cc2)nc2cc(Oc3ccnc(-c4ncc(C(F)(F)F)[nH]4)c3)ccc21

Response:
13.3
0.8

For each of the compounds below, state drug sensitivity score.
1. C=CC(=O)N1CC/C(=C\c2ccc(F)c([N+](=O)[O-])c2)C(=O)/C(=C/c2ccc(F)c([N+](=O)[O-])c2)C1
2. CNc1nc(-c2ccc3c(N)n[nH]c3c2)cc(N2C[C@@H](C(=O)NC3CCCCC3)CC[C@H]2C)n1

Response:
1: 24.7; 2: 3.1

###

System: OVCAR8
Experiment: drug sensitivity score (DSS2) on cancer cell count; higher = more sensitive; extreme values may be limits of the assay
Details: co-cultured fibroblast: WI38; 72 h
I'd be grateful if you could share measured drug sensitivity score for these entries.
Give bare numbers, in DSS.

Prompt: What drug sensitivity score value was documented for this molecule, "O=C(O)c1ccc(-c2c[nH]c3ncc(-c4ccccc4)cc23)cc1C1CCCC1" ?
Response: 4.8

Prompt: What drug sensitivity score value was documented for this molecule, "CC[C@@H](C(=O)[C@@H](C)[C@@H](O)[C@H](C)[C@@H]1O[C@@H]([C@@H](CC)C(=O)O)CC[C@@H]1C)[C@H]1O[C@]2(C=C[C@@H](O)[C@]3(CC[C@@](C)([C@H]4CC[C@](O)(CC)[C@H](C)O4)O3)O2)[C@H](C)C[C@@H]1C" ?
Response: 12.2

Prompt: What drug sensitivity score value was documented for this molecule, "CC(C)c1cc(-c2n[nH]c(=O)n2-c2ccc3c(ccn3C)c2)c(O)cc1O" ?
Response: 22.9

Prompt: What drug sensitivity score value was documented for this molecule, "Cc1nc(-c2cn3c(n2)-c2ccc(-c4cnn(C(C)(C)C(N)=O)c4)cc2OCC3)n(C(C)C)n1" ?
Response: 0

For each of the molecules below, state drug sensitivity score.
1. CCN(CC)CCNC(=O)c1c(C)[nH]c(/C=C2\C(=O)Nc3ccc(F)cc32)c1C
2. O=c1[nH]c(=O)n([C@H]2C[C@H](O)[C@@H](CO)O2)cc1C(F)(F)F
3. Nc1ccccc1NC(=O)c1ccc(CNc2nccc(-c3cccnc3)n2)cc1
4. COc1cc(Nc2c(C#N)cnc3cc(OCCCN4CCN(C)CC4)c(OC)cc23)c(Cl)cc1Cl
5. CN(C)c1cc2c(cc1Sc1nc3c(N)nccc3n1CCNCC(C)(C)C)OCO2
6. CCc1nc(C(N)=O)c(Nc2ccc(N3CCC(N4CCN(C)CC4)CC3)c(OC)c2)nc1NC1CCOCC1

Response:
[0, 2.7, 19.3, 9.1, 16.7, 0]

###

Tested on: OVCAR8
Assay: drug sensitivity score (DSS2) on cancer cell count; higher = more sensitive; extreme values may be limits of the assay
Details: co-cultured fibroblast: BJHTERT; 72 h
READOUT_NAME: drug sensitivity score (DSS)
Answers are plain numbers, in DSS.

For each of the compounds below, state drug sensitivity score.
1. COc1ncc(-c2ccc3nccc(-c4ccnnc4)c3c2)cc1NS(=O)(=O)c1ccc(F)cc1F
2. Nc1nc(Cl)nc2c1ncn2[C@H]1C[C@H](O)[C@@H](CO)O1
3. S=c1[nH]cnc2nc[nH]c12
4. Cc1cc(-c2nc(-c3ccc(OC(F)(F)F)cc3)no2)nn1Cc1ccnc(N2CCN(C3CC3)CC2)c1
5. C[C@H](Nc1ncnc2nc[nH]c12)c1cc2cccc(Cl)c2c(=O)n1-c1ccccc1
6. Cc1sc2c(c1C)C(c1ccc(Cl)cc1)=N[C@@H](CC(=O)Nc1ccc(OCCOCCOCCOCCNc3cccc4c3C(=O)N(C3CCC(=O)NC3=O)C4=O)cc1)c1nnc(C)n1-2 (stereo partly drawn)
7. C[C@H]1C[C@@H](n2c(Nc3ccc(OC(F)(F)F)cc3)nc3cc(CCC(=O)O)ccc32)CC(C)(C)C1
8. CC[C@H](C)C(=O)O[C@H]1C[C@H](O)C=C2C=C[C@H](C)[C@H](CC[C@@H](O)C[C@@H](O)CC(=O)O)[C@H]21

Response:
1. 8.9
2. 14.7
3. 0
4. 31.1
5. 0.4
6. 19.6
7. 0
8. 0

###

I'd be grateful if you could share measured drug sensitivity score for these entries.
Tested on: OVCAR8
Experiment: drug sensitivity score (DSS2) on cancer cell count; higher = more sensitive; extreme values may be limits of the assay
Details: co-cultured fibroblast: WI38; 72 h
Give bare numbers, in DSS.

For each of the compounds below, state drug sensitivity score.
1. COc1cc2nccc(Oc3ccc(NC(=O)C4(C(=O)Nc5ccc(F)cc5)CC4)cc3)c2cc1OC [Cabozantinib]
2. O=C1c2c(O)ccc(O)c2C(=O)c2c(NCCNCCO)ccc(NCCNCCO)c21
3. CCN(CC)CCCC(C)Nc1c2ccc(Cl)cc2nc2ccc(OC)cc12 (centres undefined)
4. CCc1c2c(nc3ccc(O)cc13)-c1cc3c(c(=O)n1C2)COC(=O)[C@]3(O)CC
5. Cn1ncnc1[C@H]1c2n[nH]c(=O)c3cc(F)cc(c23)N[C@@H]1c1ccc(F)cc1
6. Cc1cc(Nc2ncc(Cl)c(Nc3ccccc3S(=O)(=O)C(C)C)n2)c(OC(C)C)cc1C1CCNCC1
7. C[C@@H]1CN(C(=O)c2ccc(NC(=O)c3cc(O[C@H](C)c4c(Cl)ccc(F)c4Cl)c(N)nn3)cc2)C[C@H](C)N1

Response:
1. 0.2
2. 17
3. 14.2
4. 40.9
5. 15.3
6. 0
7. 0.1

For each of the compounds below, state drug sensitivity score.
1. CC(C)c1c(C(=O)Nc2ccccc2)c(-c2ccccc2)c(-c2ccc(F)cc2)n1CC[C@@H](O)C[C@@H](O)CC(=O)O
2. CN1CCN(C(=O)c2ccc3cc(CCNc4ncnc5ccc(C#N)cc45)ccc3c2)CC1
3. Cn1cc(CNCC2CCN(c3ncc(C(=O)NO)cn3)CC2)c2ccccc21

Response:
1. 11.7
2. 0
3. 15.3
